Values compiled from ChEMBL document CHEMBL3885881.

MEAN CORPUSCULAR HEMOGLOBIN reference
# Organism: Rattus norvegicus
# experimental_details: DrugMatrix - Regimen: Daily Repeat
# Type: toxicity, organism-based, Sprague-Dawley
# Design: regimen Daily Repeat, gender Male, age 6-8 weeks
# experimental_context: in vivo, po, 0 mg/kg, 72 h, tissue Blood, route oral GAVAGE, dose level Control, time 3 day, […]
measured_property: MEAN CORPUSCULAR HEMOGLOBIN (pg)

>>> number("CC(C)(Oc1ccc(CCNC(=O)c2ccc(Cl)cc2)cc1)C(=O)O [BEZAFIBRATE]")
24.93
>>> number("COCc1c(C(C)C)nc(C(C)C)c(/C=C/[C@@H](O)C[C@@H](O)CC(=O)O)c1-c1ccc(F)cc1")
23.93
>>> number("COC1=CC(=O)C[C@@H](C)[C@]12Oc1c(Cl)c(OC)cc(OC)c1C2=O")
24.47
>>> number("CC(C)n1c(/C=C/C(O)CC(O)CC(=O)O)c(-c2ccc(F)cc2)c2ccccc21 (centres undefined)")
23.72
>>> number("Cn1cnc([N+](=O)[O-])c1Sc1ncnc2nc[nH]c12")
26.7
>>> number("CC(=O)[C@H]1CC[C@H]2[C@@H]3CCC4=CC(=O)CC[C@]4(C)[C@H]3CC[C@]12C")
23.98
>>> number("C=CCN")
21.33
>>> number("c1ccc2[nH]c(-c3cscn3)nc2c1")
24.37
>>> number("Oc1c(Cl)cc(Cl)cc1Sc1cc(Cl)cc(Cl)c1O")
23.72

###

# Species: Rattus norvegicus
# experimental_details: DrugMatrix - Regimen: Daily Repeat
# Type: toxicity, organism-based, Sprague-Dawley
# Parameters: regimen Daily Repeat, gender Male, age 6-8 weeks
# experimental_context: in vivo, po, 0 mg/kg, 72 h, tissue Blood, route oral GAVAGE, dose level Control, time 3 day, […]
hey, just use Y if measured NEUTROPHIL is less than 10%, otherwise N

>>> label_class("C=CCN [ALLYLAMINE]")
"N"
>>> label_class("c1ccc2[nH]c(-c3cscn3)nc2c1 [THIABENDAZOLE]")
"Y"
>>> label_class("COC1=CC(=O)C[C@@H](C)[C@]12Oc1c(Cl)c(OC)cc(OC)c1C2=O [GRISEOFULVIN]")
"N"
>>> label_class("CC(=O)[C@H]1CC[C@H]2[C@@H]3CCC4=CC(=O)CC[C@]4(C)[C@H]3CC[C@]12C [PROGESTERONE]")
"Y"

###

# Species: Rattus norvegicus
# experimental_details: DrugMatrix - Regimen: Daily Repeat
# Assay type: toxicity, organism-based, Sprague-Dawley
# Set-up: regimen Daily Repeat, gender Male, age 6-8 weeks
# experimental_context: in vivo, ip, 5 mg/kg, […], tissue Blood, route intraperitoneal, dose level High, time 14 day, vehicle 100 % SALINE
measured_property: ABSOLUTE SEGMENTED NEUTROPHIL (cells/µL)

>>> number("CARBOPLATIN")
1370

###

# Species on record: Rattus norvegicus
# experimental_details: DrugMatrix - Regimen: Daily Repeat
# Type: toxicity, organism-based, Sprague-Dawley
# Set-up: regimen Daily Repeat, gender Male, age 6-8 weeks
# experimental_context: in vivo, po, 0 mg/kg, 120 h, tissue Blood, route oral GAVAGE, dose level Control, time 5 day, vehicle 100 % WATER
Form field: EOSINOPHIL (one value per entry).
measured_property: EOSINOPHIL

>>> result("CNCCC=C1c2ccccc2CCc2ccccc21 [NORTRIPTYLINE]")
"0.67%"
>>> result("Cc1cc(NS(=O)(=O)c2ccc(N)cc2)no1 [SULFAMETHOXAZOLE]")
"0.17%"
>>> result("CC(C)(S)[C@@H](N)C(=O)O [PENICILLAMINE]")
"0%"
>>> result("COc1ccc(C(CN(C)C)C2(O)CCCCC2)cc1 (stereo not given) [VENLAFAXINE]")
"0.17%"
>>> result("CN1CCN(C(=O)OC2c3nccnc3C(=O)N2c2ccc(Cl)cn2)CC1 (stereo not given) [ZOPICLONE]")
"0.33%"
>>> result("Fc1ccc([C@@H]2CCNC[C@H]2COc2ccc3c(c2)OCO3)cc1 [PAROXETINE]")
"0.33%"
>>> result("COc1cccc(C2(O)CCCCC2CN(C)C)c1 (stereo not given) [TRAMADOL]")
"0.33%"
>>> result("Clc1ccc(C(c2ccccc2Cl)C(Cl)Cl)cc1 (stereo not given) [MITOTANE]")
"0.17%"
>>> result("Cn1cnc([N+](=O)[O-])c1Sc1ncnc2nc[nH]c12 [AZATHIOPRINE]")
"0.5%"
>>> result("C[C@]12Cc3c[nH]nc3C[C@@H]1CC[C@@H]1[C@@H]2CC[C@@]2(C)[C@H]1CC[C@]2(C)O [STANOZOLOL]")
"0.33%"
